Cited source for all entries: BigSolDB 2.1

- CONDITION DETAILS: in dioctyl adipate, 339.15 K
OBSERVABLE: solubility (mole fraction)
The response must contain the number and no unit.

Query: Identify the reported solubility (mole fraction) for the following entry. "CCc1ccc2c(c1)C(=O)c1ccccc1C2=O"
Reply: 0.209

----------
- CONDITION DETAILS: in trioctyl phosphate, 309.15 K
OBSERVABLE: solubility (mole fraction)
Please give the numeric answer without any surrounding text.

Query: Give the value of solubility (mole fraction) reported for the following: "CCc1ccc2c(c1)C(=O)c1ccccc1C2=O"
Reply: 0.0678

----------
- CONDITION DETAILS: in diisobutyl methanol, 304.15 K
OBSERVABLE: solubility (mole fraction)

Query: Look up and state reported solubility (mole fraction) for "CCc1ccc2c(c1)C(=O)c1ccccc1C2=O"
Reply: 0.0441
